# STUDY TARGET: Phospholipid hydroperoxide glutathione peroxidase GPX4 (Homo sapiens) (UniProt P36969)
# Sequence (P36969 whole entry, looked up): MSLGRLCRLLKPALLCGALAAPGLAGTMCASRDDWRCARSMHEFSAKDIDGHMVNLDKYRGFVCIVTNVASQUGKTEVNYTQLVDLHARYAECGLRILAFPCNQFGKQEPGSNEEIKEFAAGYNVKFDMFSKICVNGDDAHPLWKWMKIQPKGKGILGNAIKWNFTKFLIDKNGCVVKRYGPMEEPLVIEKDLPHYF
# PROTOCOL NOTES: Primary qHTS Assay for Inhibitors of Recombinant Selenoprotein Glutathione Peroxidase 4 (GPX4) (AID 1845192); also: nearly all actives have a fitted effect of over 65% in size
# CONDITION PARAMETERS: recombinant GPX4, GR-coupled NADPH fluorescence, 15 min; series mostly up to 50 µM
Inconclusive results are not listed. Active and inactive are the calls of the source. Calls follow the shape of the dose curve; as a rule, active = well fitted inhibition curve with a large enough effect; inconclusive = small, poorly fitted or top-dose-only effect; inactive = flat fitted curve, though single readings scatter.
PARAMETER: outcome

[[record]]
query_smiles = "C/C=C(\\C)C(=O)N[C@@H](c1ccccc1)[C@@H](O)C(=O)O[C@H]1C[C@@]2(O)[C@@H](OC(=O)c3ccccc3)[C@@H]3[C@]4(OC(C)=O)CO[C@@H]4C[C@H](O)[C@@]3(C)C(=O)[C@H](OC(C)=O)C(=C1C)C2(C)C"
study_target = "Phospholipid hydroperoxide glutathione peroxidase GPX4 (Homo sapiens) (UniProt P36969)"
reported_value = "inactive"

[[record]]
query_smiles = "CCCCCCCCCCC(=O)O[C@H]1CC[C@H]2[C@@H]3CCC4=CC(=O)CC[C@]4(C)[C@H]3CC[C@]12C"
study_target = "Phospholipid hydroperoxide glutathione peroxidase GPX4 (Homo sapiens) (UniProt P36969)"
reported_value = "inactive"

[[record]]
query_smiles = "CO/C1=C/C(C)=C\\[C@@H](C)[C@@H](O)[C@@H](C)C/C(C)=C\\C=C/[C@H](OC)[C@@H]([C@@H](C)[C@@H](O)[C@H](C)[C@@]2(O)C[C@@H](O)[C@H](C)[C@@H](C(C)C)O2)OC1=O"
study_target = "Phospholipid hydroperoxide glutathione peroxidase GPX4 (Homo sapiens) (UniProt P36969)"
reported_value = "inactive"


----------
# STUDY TARGET: Cytochrome P450 1A2 (Homo sapiens)
# PROTOCOL NOTES: qHTS for inhibitors of CYPIA2 against the NCATS DSHEA and TCM libraries (AID 1919976)
# CONDITION PARAMETERS: recombinant CYP1A2 enzyme activity, luminescence; series mostly up to 37 µM
Results filed as inconclusive are left out. Calls of active or inactive are those of the source. Calls follow the shape of the dose curve; as a rule, active = well fitted inhibition curve with a large enough effect; inconclusive = small, poorly fitted or top-dose-only effect; inactive = no such curve, though single readings can be large or run the other way.
The reply should name one outcome from True (active), False (inactive)

In this assay, the call recorded for `COC1=CC(=O)O[C@@H](/C=C/c2ccc3c(c2)OCO3)C1` was what?
True

Record: COC(=O)C1=CO[C@@H](C)[C@@H]2CN3CC[C@@]4(C(=O)Nc5ccccc54)[C@@H]3CC12 (some centres undefined)
False

Record: `C=CCc1ccc2c(c1)OCO2`
True

Record: `O=S(=O)(O)O`
True

Record: `C=C[C@H]1CN2CC[C@@]3(C(=O)Nc4ccccc43)[C@@H]2C[C@@H]1/C(=C\OC)C(=O)OC`
False

----------
# Test system: PC26
# PROTOCOL NOTES: qHTS profiling for inhibitors of Plasmodium falciparum proliferation (AID 504749); also: nearly all actives have a fitted effect of over 60% in size; also: potency is read from the fitted curve at half-maximal effect
# CONDITION PARAMETERS: P. falciparum in erythrocytes, SYBR Green DNA, 72 h; series mostly up to 28.7 µM
Results filed as inconclusive are left out. The source made the active and inactive calls. The call rests on the fitted dose curve; in most records, active means well fitted inhibition curve with a large enough effect; inconclusive means small, poorly fitted or top-dose-only effect; inactive means flat fitted curve, though single readings scatter.
PARAMETER: Potency

// solved cases for Potency follow
[[record]]
compound = "CC[C@@]1(c2ccc(N)cc2)CCC(=O)NC1=O"
study_target = "PC26"
parameter = "Potency"
reported_value = "inactive"

[[record]]
compound = "CC(C)c1c(CN(C)[C@@H](C)Cc2ccccc2)n(C)n(-c2ccccc2)c1=O"
study_target = "PC26"
parameter = "Potency"
reported_value = "inactive"

[[record]]
compound = "COc1cc2c(cc1OC)[C@@]13CCN4CC5=CCOC6CC(=O)N2C1[C@H]6[C@@H]5C[C@@H]43 (stereo partly specified)"
study_target = "PC26"
parameter = "Potency"
reported_value = "inactive"

[[record]]
compound = "O=[As]O[As]=O (stereo unspecified)"
study_target = "PC26"
parameter = "Potency"
reported_value = "15.1 µM (active)"

[[record]]
compound = "CNc1ccc(C(=O)CC(O)CCC(C)C2OC(=O)CC(O)CC(=O)CC(O)CC(O)CC(O)CC(O)CC3(O)CC(O)C(C(=O)OC)C(CC(O[C@@H]4OC(C)C(O)C(N)C4O)/C=C/C=C/C=C/C=C/C=C/C=C/C=C/C2C)O3)cc1 (stereo partly specified)"
study_target = "PC26"
parameter = "Potency"
reported_value = "inactive"


Reported Potency for `CO[C@@H](COC(N)=O)C1=C(N2CC2)C(=O)C(C)=C(N2CC2)C1=O` : what is it?
1.9 µM (active)
